Let's look at some proteins and their measured Selectivity.
# Target Entity: pre-pro-human insulin

trypsin variant SEQ ID NO: 65 (protein) IVGGYTCAANSIPYQVSLNSGSHRCGGSLINSQWVVSAAHCYKSRIQVRLGEHNIDVLEGNEQFINAAKIITHPNFNGNTLDNDIMLIKLSSPATLNSRVATVSLPRSCAAAGTECLISGWGNTKSSGSSGPSLLQCLKAPVLSDSSCKSSYPGQITGNMICVGFLEGGKDACQGDSGGPVVCNGQLQGIVSSGYGCAQKNKPGVYTKVCNYVNWIQQTIAAN = >80%
trypsin variant SEQ ID NO: 44 (protein) IVGGYTCAANSIPYQVSLNSGSHRCGGSLINSQWVVSAAHCYKSRIQVRLGEHNIDVLEGNEQFINAAKIITHPNFNGNTLDNDIMLIKLSSPATLNSRVATVSLPRSCAAAGTECLISGWGNTKSSGSSYPSLLQCLKAPVLSDSSCKSSYPGQITGNMICVGFLEGGKDSCQGDSGGPVVCNGQLQGIVSSGYGCAQKNKPGVYTKVCNYVNWIQQTIAAN = >80%
trypsin variant SEQ ID NO: 122 (protein) IVGGYTCAANSIPYQVSLNSGSHRCGGSLINSQWVVSAAHCYKSRIQVRLGEHNIDVLEGNEQFINAAKIITHPNFNGNTLDNDIMLIKLSSPATLNSRVATVSLPRSCAAAGTECLISGWGNTKSSGSSYPSLLQCLKAPVLSDSSCKSSYPGQITGNMICVGFLEGGFDACQGDSGGPVVCNGQLQGIVSSGYGCAQKNKPGVYTKVCNYVNWIQQTIAAN = 59.4%
trypsin variant SEQ ID NO: 78 (protein) IVGGYTCAANSIPYQVSLNSGSHRCGGSLINSQWVVSAAHCYKSRIQVRLGEHNIHVLEGNEQFINAAKIITHPNFNPNTLDNDIMLIKLSSPATLNSHVATVSLPTSCAAAGTECLISGWGNTCSSGSSYPSLLQCLKAPVLSDSSCKSSYPGQITGNMICVGFLEGGKDACQGDSGGPVVCNGQLQGIVSSGYGCAQKNKPGVYTKVCNYVNWIQQTIAAN = >80%

Consider the additional protein presented here.
Ask | Quick check: Selectivity of trypsin variant SEQ ID NO: 92 (protein) IVGGYTCAANSIPYQVSLNSGSHRCGGSLINSQWVVSAAHCYKPRIQVRLGEHNIHVLEGNEQFINAAKIITHPNFNPNTLDNDIMLIKLSSPATLNSAVATVSLPTSCAAAGTECLISGWGNTCSSGSSMPSLLQCLKAPVLSDSSCKSSYPGQITGNMICVGFLEGGKDACQGDSGGPVVCNGQLQGIVSSGYGCAQKNKPGVYTKVCNYVNWIQQTIAAN ?
Reply | >90%

src = patent US20230303994
